System: human muscarinic M4 receptor (Homo sapiens)
Construct: expressed in transfected cells
Sequence (P08173 whole entry): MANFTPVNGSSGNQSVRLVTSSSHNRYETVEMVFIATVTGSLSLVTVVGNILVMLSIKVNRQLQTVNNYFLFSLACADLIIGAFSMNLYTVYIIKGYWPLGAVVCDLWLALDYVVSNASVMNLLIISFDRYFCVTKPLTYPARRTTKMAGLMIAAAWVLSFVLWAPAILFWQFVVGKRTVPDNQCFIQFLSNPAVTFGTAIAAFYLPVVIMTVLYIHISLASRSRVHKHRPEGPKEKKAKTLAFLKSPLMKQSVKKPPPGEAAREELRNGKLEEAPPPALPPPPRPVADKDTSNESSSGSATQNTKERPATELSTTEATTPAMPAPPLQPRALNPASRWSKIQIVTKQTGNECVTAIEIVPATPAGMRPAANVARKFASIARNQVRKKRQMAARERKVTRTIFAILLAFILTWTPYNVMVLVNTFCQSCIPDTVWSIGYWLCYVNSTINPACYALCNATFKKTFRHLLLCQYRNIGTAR
Test Protocol: Alphascreen Surefire phospho-ERK1/2 functional assay, M4
Assay type: cell-based
Experimental Context: CHO cells stably expressing human M4; phospho-ERK1/2; read-out: pEC50 M4 (converted)
Each entry below carries its recorded EC50.

Examples with answers:
CCOC(=O)N1CCCN(C2CCC3(CC2)C(=O)Nc2ccc(OC)cc23)CC1 (single isomer, unassigned) [4-12 isomer 1] | > 20 µM
CCOC(=O)N[C@H]1CCN(C2CCC3(CC2)C(=O)Nc2ccc(C)cc23)C1 (single isomer, unassigned) [2-5 isomer 1] | > 15.8 µM
CCOC(=O)N1CCCN(C2CCC(C#N)(c3ccc(OC)cc3)CC2)CC1 (mixture of isomers) [3-9 mixture of isomers] | > 20 µM
CCOC(=O)N[C@H]1CCN(C2CCC(C#N)(c3cccc(F)c3)CC2)C1 (single isomer, unassigned) [1-3 Isomer 2] | > 20 µM
Cc1ccc(C2(C#N)CCC(N3CCC4(CC(c5nc(C)no5)C4)C3)CC2)nc1 (single isomer, unassigned) [21-5 Isomer 1] | 1.07 µM
CCOC(=O)N[C@H]1CCN(C2CCC3(CC2)C(=O)Nc2cnc(OC)cc23)C1 (single isomer, unassigned) [2-19 isomer 1] | > 20 µM
CCOC(=O)N1CCCN(C2CCC3(CC2)C(=O)Nc2ccc(C)cc23)CC1 (single isomer, unassigned) [4-7 isomer 1] | 5.37 µM
CCOC(=O)N[C@H]1CCN(C2CCC3(CC2)C(=O)Nc2cccc(C)c23)C1 (single isomer, unassigned) [2-6 isomer 1] | 0.0603 µM
CCOC(=O)N[C@H]1CCN(C2CCC3(CC2)C(=O)Nc2c(C)cccc23)C1 (single isomer, unassigned) [2-3 isomer 1] | > 20 µM
CCOC(=O)N(C)[C@H]1CCN(C2CCC(C#N)(c3ccccc3)CC2)C1 (single isomer, unassigned) [1-20 Isomer 2] | > 20 µM

According to the records, this compound COc1ccc2c(c1)C1(CCC(N3CCC4(CC(c5nc(C)no5)C4)C3)CC1)C(=O)N2 (single isomer, unassigned) [26-2 Isomer 1] displays EC50 of 0.0813 µM

For this compound ( C/C=C/C(=O)N1CCCN(C2CCC3(CC2)C(=O)Nc2ccccc23)CC1 (single isomer, unassigned) [4-4 isomer 2] ), measured EC50 is > 20 µM

// CCOC(=O)NC1CCN(C2CCC3(CC2)C(=O)Nc2ccccc23)CC1 (single isomer, unassigned) [7-1 isomer 2] : EC50 value = 0.282 µM
